# assayedTarget: T1, CD122 (human, UniProt P14784 27-239)
# T1 construct: also called IL-2Rβ; hIL-2 receptor
# T1 sequence: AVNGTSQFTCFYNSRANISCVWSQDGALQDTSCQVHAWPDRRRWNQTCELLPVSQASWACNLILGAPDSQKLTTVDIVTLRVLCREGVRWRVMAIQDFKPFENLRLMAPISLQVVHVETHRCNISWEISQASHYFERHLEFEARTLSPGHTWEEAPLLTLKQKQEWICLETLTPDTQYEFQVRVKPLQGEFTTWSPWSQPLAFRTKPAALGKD
# protocolText: BLI (OCTET RED96); receptor loaded on biosensor, IL-2 mutein in solution at 10 to 2,000 nM
Collected Kd values appear next to each entry.

| binder | Kd |
| --- | --- |
| IL-2-IL-15 Chimera 54 (T3A, C125S, Q126T) (ligand, no fusion partner is stated) APASSSTKKTQLQLEHLLLDLQMILNGIQSMEIDATTFKFYMPKKATELKHLQCLEEELKPLEEVLNLAQSKNFHLRPRDLISNINVIVLELKGSETTFMCEYADETATIVEFLNRWITFSTSIISTLT | 650 nM |
| IL-2-IL-15 Chimera 2 (T3A, C125S) (ligand, hIL-2 with N29-L40 replaced by an IL-15 hinge fragment-containing peptide; no fusion partner is stated) APASSSTKKTQLQLEHLLLDLQMILNGIQSMEIDATTFKFYMPKKATELKHLQCLEEELKPLEEVLNLAQSKNFHLRPRDLISNINVIVLELKGSETTFMCEYADETATIVEFLNRWITFSQSIISTLT | 104 nM |
| IL-2-IL-15 Chimera 58 (T3A, L18C, Q126E) (ligand, no fusion partner is stated) APASSSTKKTQLQLEHLCLDLQMILNGIQSMEIDATTFKFYMPKKATELKHLQCLEEELKPLEEVLNLAQSKNFHLRPRDLISNINVIVLELKGSETTFMCEYADETATIVEFLNRWITFCESIISTLT | 188 nM |
| IL-2-IL-15 Chimera 56 (T3A, C125S, S130R) (ligand, no fusion partner is stated) APASSSTKKTQLQLEHLLLDLQMILNGIQSMEIDATTFKFYMPKKATELKHLQCLEEELKPLEEVLNLAQSKNFHLRPRDLISNINVIVLELKGSETTFMCEYADETATIVEFLNRWITFSQSIIRTLT | 808 nM |
| hIL-2 Mutein (T3A, F42A, Y45A, L72G, C125S) (ligand, no fusion partner is stated) APASSSTKKTQLQLEHLLLDLQMILNGINNYKNPKLTRMLTAKFAMPKKATELKHLQCLEEELKPLEEVLNGAQSKNFHLRPRDLISNINVIVLELKGSETTFMCEYADETATIVEFLNRWITFSQSIISTLT | 550 nM |
| IL-2-IL-15 Chimera 68 (T3A, C125S, Q126T, S130R) (ligand, no fusion partner is stated) APASSSTKKTQLQLEHLLLDLQMILNGIQSMEIDATTFKFYMPKKATELKHLQCLEEELKPLEEVLNLAQSKNFHLRPRDLISNINVIVLELKGSETTFMCEYADETATIVEFLNRWITFSTSIIRTLT | 466 nM |
